Data origin, for the record: patent US20110223168A1

SYSTEM_NAME: T1, human TNFα (human, UniProt P01375 77-233)
T1 construct: Coated on plates, coupled to a CM5 chip, or added in solution (10 ng/ml) in the TNF receptor assay; the assay paragraphs often print only 'TNF'; also called TNF alpha; TAR1
TEST_METHOD_NOTES: TNF receptor assay: inhibition of TNF binding to TNFR1-Fc (ELISA)
METRIC_NAME: IC50

Query :: Look up and report measured IC50 for this entry: dAb3CH/TAR1-5CK Fab (Fab, V domains shown, not shown: large carriers, also called TAR1-5CK d3CH) V domain 1: DIQMTQSPSSLSASVGDRVTITCRASQSVKEFLWWYQQKPGKAPKLLIYMASNLQSGVPSRFSGSGSGTDFTLTISSLQPEDFATYYCQQKFKLPRTFGQGTKVEIKR V domain 2: DIQMTQSPSSLSASVGDRVTITCRASQSIFMNLLWYQQKPGKAPKLLIYNASVLQSGVPSRFSGSGSGTDFTLTISSLQPEDFATYYCQQVVWRPFTFGQGTKVEIKR
Result :: ~100 nM
